This collection of values is drawn from the supplement of paper PMC6555819.

Tested on: FXR:RXRa (NR concentration 270 nM, RXRa partner concentration 90 nM)
MEASUREMENT_NOTES: PBM binding z-score (relative to random genomic background probes); higher = stronger binding; sequences stand for … in GC…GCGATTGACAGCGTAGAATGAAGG
Response key: fulfilled means PBM binding z-score >= 2; not fulfilled means PBM binding z-score < 2.

CHAIN_SEQUENCE: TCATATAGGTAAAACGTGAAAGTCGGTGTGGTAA
CLASS_NAME: not fulfilled

Decide: is the reported value of PBM binding z-score for `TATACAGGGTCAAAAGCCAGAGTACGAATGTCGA` equal to or greater than 2?
fulfilled

Then what about the sequence `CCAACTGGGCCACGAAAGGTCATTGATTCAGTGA` ?
fulfilled

Then what about the sequence `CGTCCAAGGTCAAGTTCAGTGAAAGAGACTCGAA` ?
fulfilled

Then what about the sequence `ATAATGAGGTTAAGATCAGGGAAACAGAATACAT` ?
fulfilled

Then what about the sequence `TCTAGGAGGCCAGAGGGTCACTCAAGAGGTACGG` ?
not fulfilled

* * *

Test system: LXRa:RXRa (NR concentration 270 nM, RXRa partner concentration 90 nM)
MEASUREMENT_NOTES: PBM binding z-score (relative to random genomic background probes); higher = stronger binding; sequences stand for … in GC…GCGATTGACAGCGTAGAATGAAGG
MEASURED_METRIC: PBM binding z-score
Numbers only.

Example results:
CHAIN_SEQUENCE: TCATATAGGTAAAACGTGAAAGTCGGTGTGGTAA
MEASURED_METRIC: PBM binding z-score
TEST_RESULT: 0.644

CHAIN_SEQUENCE: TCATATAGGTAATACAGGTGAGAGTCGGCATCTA
MEASURED_METRIC: PBM binding z-score
TEST_RESULT: 0.512

CHAIN_SEQUENCE: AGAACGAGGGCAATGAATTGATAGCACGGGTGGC
MEASURED_METRIC: PBM binding z-score
TEST_RESULT: 0.102

Go through the items and report each one's PBM binding z-score.
1. CCTCGGAGGACAACAGGAGGTCTGAGCTGCCAGA
2. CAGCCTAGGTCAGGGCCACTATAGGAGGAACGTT
3. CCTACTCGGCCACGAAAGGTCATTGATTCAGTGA

1: -0.574; 2: 1.24; 3: 5.15

* * *

Tested on: RXRa homodimer (NR concentration 180 nM)
MEASUREMENT_NOTES: PBM binding z-score (relative to random genomic background probes); higher = stronger binding; sequences stand for … in GC…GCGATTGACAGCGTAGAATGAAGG
Response key: criterion met means PBM binding z-score >= 0.4; criterion not met means PBM binding z-score < 0.4.

Decide: is the reported value of PBM binding z-score for `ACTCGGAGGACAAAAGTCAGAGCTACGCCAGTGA` equal to or greater than 0.4?
criterion not met

Then what about the sequence `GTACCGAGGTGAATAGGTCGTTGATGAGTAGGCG` ?
criterion met

Then what about the sequence `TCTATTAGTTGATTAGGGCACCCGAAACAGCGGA` ?
criterion met

Then what about the sequence `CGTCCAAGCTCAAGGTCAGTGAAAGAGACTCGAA` ?
criterion met

Then what about the sequence `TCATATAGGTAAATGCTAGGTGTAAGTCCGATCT` ?
criterion met

Then what about the sequence `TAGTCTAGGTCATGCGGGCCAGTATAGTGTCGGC` ?
criterion met

Then what about the sequence `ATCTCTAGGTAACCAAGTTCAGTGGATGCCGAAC` ?
criterion met

Then what about the sequence `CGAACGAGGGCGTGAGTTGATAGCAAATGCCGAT` ?
criterion not met

Then what about the sequence `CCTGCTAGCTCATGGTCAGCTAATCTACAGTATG` ?
criterion not met

Then what about the sequence `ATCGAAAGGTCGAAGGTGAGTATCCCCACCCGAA` ?
criterion met

Then what about the sequence `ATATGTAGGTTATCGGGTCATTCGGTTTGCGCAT` ?
criterion met

Then what about the sequence `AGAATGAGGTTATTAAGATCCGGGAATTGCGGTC` ?
criterion met
